FYI, the data here is from paper PMC10786891.

Record form. Attribute: Kd. Fill in for each entry.
Biological target: T1, EsCas13d, nuclease-dead (Eubacterium siraeum, UniProt B0MS50, R295A;H300A;R849A;H854A)
T1 sequence: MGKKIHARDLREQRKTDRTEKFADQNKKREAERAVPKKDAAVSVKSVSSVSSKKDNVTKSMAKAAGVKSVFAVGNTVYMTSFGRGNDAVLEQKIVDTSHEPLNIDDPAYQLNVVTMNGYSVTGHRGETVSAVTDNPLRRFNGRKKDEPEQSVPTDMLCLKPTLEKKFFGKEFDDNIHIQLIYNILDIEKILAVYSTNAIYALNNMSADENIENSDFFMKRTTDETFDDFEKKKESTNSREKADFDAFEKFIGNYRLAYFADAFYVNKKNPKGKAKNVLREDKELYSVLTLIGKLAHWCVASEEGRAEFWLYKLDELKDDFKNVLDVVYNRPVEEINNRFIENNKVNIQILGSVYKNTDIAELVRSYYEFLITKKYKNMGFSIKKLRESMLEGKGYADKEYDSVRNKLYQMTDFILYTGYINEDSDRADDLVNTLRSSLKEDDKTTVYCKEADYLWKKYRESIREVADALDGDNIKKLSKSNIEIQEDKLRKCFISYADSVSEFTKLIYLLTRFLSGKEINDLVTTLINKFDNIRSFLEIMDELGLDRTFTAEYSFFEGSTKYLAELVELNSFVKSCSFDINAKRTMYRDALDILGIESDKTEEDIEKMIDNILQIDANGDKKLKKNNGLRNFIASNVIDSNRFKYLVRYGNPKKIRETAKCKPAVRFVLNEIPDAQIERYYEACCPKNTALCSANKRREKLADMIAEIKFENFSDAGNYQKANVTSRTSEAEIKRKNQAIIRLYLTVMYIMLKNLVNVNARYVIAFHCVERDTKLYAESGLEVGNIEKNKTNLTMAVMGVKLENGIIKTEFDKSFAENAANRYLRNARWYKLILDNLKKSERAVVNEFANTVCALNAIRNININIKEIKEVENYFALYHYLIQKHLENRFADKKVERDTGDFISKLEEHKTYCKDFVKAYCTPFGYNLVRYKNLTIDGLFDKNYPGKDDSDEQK
Assay: crRNA (strand 1, pre-loaded); Mg2+; 40 mM Tris-HCl pH 7.5, 150 mM NaCl, 6 mM MgCl2, 1 mM DTT, 0.1% Tween-20, 0.2 mg/ml BSA; 25 C; 10 min per concentration, then washed
Conditions: tags: His6-TwinStrep-SUMO cleaved; N-terminal SNAP kept (SNAP-Surface 488); label: 3' end held by stalled T7 RNA polymerase
One number for each entry, in nM.

>  <BINDER>
target 1 A1U,A14C (mixed) RNA 1: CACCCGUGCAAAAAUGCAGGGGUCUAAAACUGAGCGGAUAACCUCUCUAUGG RNA 2: GGGAAUGGAUCCACAUCUACGAAUUCGUACCAUAGAGCGGUUAUCCGCUCUCCGAGAUCGGAAGAGCACACGU

>  <READING_UNIT>
nM

>  <Kd>
45

$$$$

--- query ---
Output Kd of target 2 MT 5'PFS GGC 3'PFS CAA (mixed) RNA 1: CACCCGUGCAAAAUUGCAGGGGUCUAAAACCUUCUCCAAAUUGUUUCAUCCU RNA 2: GGGAAUGGAUCCACAUCUACGAAUUCGGCAGGAUGAAACAAUUUGGAGAAGCAAAGAUCGGAAGAGCACACGU
8.9
